Molecular target: human TLR9 (Homo sapiens, UniProt Q9NR96)
Sequence (Q9NR96 26-1032): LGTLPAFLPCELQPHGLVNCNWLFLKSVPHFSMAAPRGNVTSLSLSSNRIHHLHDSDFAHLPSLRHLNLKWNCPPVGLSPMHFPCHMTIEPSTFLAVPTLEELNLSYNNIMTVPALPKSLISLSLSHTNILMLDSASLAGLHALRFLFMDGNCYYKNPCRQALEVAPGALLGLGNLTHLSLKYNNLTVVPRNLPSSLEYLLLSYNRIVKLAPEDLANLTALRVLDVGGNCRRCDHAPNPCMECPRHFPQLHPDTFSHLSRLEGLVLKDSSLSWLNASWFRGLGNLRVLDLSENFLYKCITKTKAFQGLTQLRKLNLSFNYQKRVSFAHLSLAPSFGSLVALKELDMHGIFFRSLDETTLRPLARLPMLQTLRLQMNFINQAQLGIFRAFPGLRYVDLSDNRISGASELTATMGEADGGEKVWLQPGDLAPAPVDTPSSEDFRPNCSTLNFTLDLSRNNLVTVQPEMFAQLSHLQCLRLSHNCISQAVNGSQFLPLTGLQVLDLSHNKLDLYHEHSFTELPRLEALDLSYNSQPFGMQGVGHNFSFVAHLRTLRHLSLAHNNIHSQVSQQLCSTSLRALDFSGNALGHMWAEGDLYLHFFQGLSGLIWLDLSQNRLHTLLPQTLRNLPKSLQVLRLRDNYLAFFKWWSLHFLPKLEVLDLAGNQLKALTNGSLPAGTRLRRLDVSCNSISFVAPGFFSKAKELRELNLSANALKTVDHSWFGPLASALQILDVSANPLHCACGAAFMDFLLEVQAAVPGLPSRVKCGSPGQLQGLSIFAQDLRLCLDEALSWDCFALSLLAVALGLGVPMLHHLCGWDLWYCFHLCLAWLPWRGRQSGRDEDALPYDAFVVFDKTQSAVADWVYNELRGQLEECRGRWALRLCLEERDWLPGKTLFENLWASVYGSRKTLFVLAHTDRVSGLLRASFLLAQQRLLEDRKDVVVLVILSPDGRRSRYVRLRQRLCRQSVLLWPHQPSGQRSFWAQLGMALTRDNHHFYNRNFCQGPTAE
Experiment: TLR9 inhibition reporter assay (HEK-Blue cells, SEAP reporter, ODN2006 stimulation)
Settings: HEK-Blue cells overexpressing human TLR9, SEAP reporter, ODN2006 5 nM
Measurement label: IC50

See these solved cases before continuing.
Cc1cc(-c2[nH]c3ccc(C4CCN(CC(=O)N(C)C)CC4)cc3c2C(C)C)cc2nccn12    0.1 to 1 µM
Cc1nn2ccc(-c3[nH]c4ccc(C5CCNCC5)cc4c3C(C)C)cc2c1F    > 50 µM
CC(C)c1c(-c2ccnc3[nH]ncc23)[nH]c2ccc(C3CCN(C(=O)CNCCCN(C)C)CC3)cc12    0.1 to 1 µM

Task: // returns reported IC50 for input `CC(C)c1c(-c2ccc3ncsc3c2)[nH]c2ccc(C3CCN(CC(=O)N(C)C)CC3)cc12`
Output: 1 to 50 µM

Task: GET /values?readout=IC50&item= `Cc1c(-c2[nH]c3ccc(C4CCN(C5CCOCC5)CC4)cc3c2C(C)C)nn2ncnc2c1C`
Output: 1 to 50 µM

Task: Requested read-out: IC50. Entry: `CC(C)c1c(-c2ccc3[nH]cnc3c2)[nH]c2ccc(C3CCNCC3)cc12`
Output: 1 to 50 µM

Task: Suppose we examine the molecule `Cc1cc2cc(-c3[nH]c4ccc(C5CCN(CC(=O)N(C)C)CC5)cc4c3C(C)C)cc(C)n2n1` ; what IC50 value has been reported?
Output: 1 to 50 µM

Task: What value of IC50 has been reported for the following molecule? `Cc1ccnc2c1c(-c1[nH]c3ccc(C4CCN(C5CCOCC5)CC4)cc3c1C(C)C)cn2C`
Output: 1 to 50 µM

Task: For the molecule shown here, CNCCN1CCC(c2ccc3[nH]c(-c4ccnc5[nH]ncc45)c(C(C)C)c3c2)C(F)C1 (stereo not shown) [Example 678] , give the reported IC50.
Output: 1 to 50 µM

Task: Returns the measured IC50 for the input molecule. Input: `CC(C)c1c(-c2ccnc3[nH]ncc23)[nH]c2ccc(C3CCN(C(=O)CN4CCNC(=O)C4)CC3)cc12`
Output: > 50 µM

Task: Find the recorded IC50 belonging to `Cc1cnc2ccc(-c3[nH]c4ccc(C5CCN(C(=O)CN(C)C)CC5)cc4c3C(C)C)cn12` and report it.
Output: 0.1 to 1 µM

###

target: human TLR7 (Homo sapiens, UniProt Q9NYK1); assay: TLR7 inhibition reporter assay (HEK-Blue cells, SEAP reporter, gardiquimod stimulation); conditions: HEK-Blue cells overexpressing human TLR7, SEAP reporter, gardiquimod 7.5 μM
Sequence (Q9NYK1 27-1049): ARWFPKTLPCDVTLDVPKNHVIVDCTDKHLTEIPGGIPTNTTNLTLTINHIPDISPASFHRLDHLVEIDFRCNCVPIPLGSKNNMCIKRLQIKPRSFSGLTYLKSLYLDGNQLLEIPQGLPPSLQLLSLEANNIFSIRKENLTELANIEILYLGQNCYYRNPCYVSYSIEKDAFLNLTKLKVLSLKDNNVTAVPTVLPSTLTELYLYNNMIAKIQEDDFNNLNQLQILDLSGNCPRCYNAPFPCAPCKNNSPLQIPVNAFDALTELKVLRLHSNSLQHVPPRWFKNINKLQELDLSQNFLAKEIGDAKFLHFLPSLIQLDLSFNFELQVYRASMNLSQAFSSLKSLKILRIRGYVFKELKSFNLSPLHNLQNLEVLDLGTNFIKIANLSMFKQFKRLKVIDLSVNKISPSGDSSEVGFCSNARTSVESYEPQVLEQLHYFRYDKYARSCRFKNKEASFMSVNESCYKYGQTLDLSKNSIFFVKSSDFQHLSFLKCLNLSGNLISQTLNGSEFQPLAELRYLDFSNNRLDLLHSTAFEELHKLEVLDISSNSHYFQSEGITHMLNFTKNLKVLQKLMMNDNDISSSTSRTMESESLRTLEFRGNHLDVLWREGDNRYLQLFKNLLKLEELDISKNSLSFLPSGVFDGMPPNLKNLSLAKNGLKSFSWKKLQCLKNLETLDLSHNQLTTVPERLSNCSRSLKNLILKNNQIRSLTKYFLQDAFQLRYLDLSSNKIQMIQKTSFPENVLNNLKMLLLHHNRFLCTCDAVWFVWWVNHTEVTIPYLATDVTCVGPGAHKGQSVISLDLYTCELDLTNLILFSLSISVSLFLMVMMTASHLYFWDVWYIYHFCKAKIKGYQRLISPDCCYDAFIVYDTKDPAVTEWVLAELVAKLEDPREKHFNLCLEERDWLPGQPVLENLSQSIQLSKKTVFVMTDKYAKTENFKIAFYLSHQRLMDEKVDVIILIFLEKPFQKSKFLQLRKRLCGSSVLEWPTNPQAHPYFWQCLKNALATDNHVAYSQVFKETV
pIC50: −log10 of the molar value.
Measurement label: pIC50

COc1cc(-c2[nH]c3ccc(C4CCNCC4)cc3c2C(C)C)cc2nc(C)nn12    > 7.00
CCc1c(-c2ccc3[nH]c(=O)[nH]c3c2)[nH]c2ccc(C3CCNCC3)cc12    4.30 to 6.00
COCCNC(=O)c1cn2cc(-c3[nH]c4ccc(C5CCNCC5)cc4c3C(C)C)cc(C)c2n1    > 7.00
CNC(=O)CN1CCC(c2ccc3[nH]c(-c4cc(Cl)c5ncccc5c4)c(C(C)C)c3c2)CC1    > 7.00
CCc1c(-c2ccnc3[nH]ccc23)[nH]c2ccc(C3CCN(Cc4cccn4C)CC3)cc12    6.00 to 7.00

Moving on to the next molecule.
Task: // query pIC50 value for entry `Cc1cc2cc(-c3[nH]c4ccc(C5CCN(C6COC6)CC5)cc4c3C(C)C)cc(CC(C)C)n2n1`
Output: < 5.51

###

molecular target: human TLR7 (Homo sapiens, UniProt Q9NYK1); construct: host or cells: HEK-Blue cells (HEK293-derived reporter line); experiment: TLR7 inhibition reporter assay (HEK-Blue cells, SEAP reporter, gardiquimod stimulation); assay type: cell-based; details: HEK-Blue cells overexpressing human TLR7, SEAP reporter, gardiquimod 7.5 μM
Entries and their IC50

FC(F)Cc1c(-c2ccnc3[nH]ncc23)[nH]c2ccc(C3CCNCC3)cc12    100 to 1000 nM
COc1cc(-c2[nH]c3ccc(C4CCN(C(=O)CN(C)C)CC4)cc3c2C(C)C)cc2ncnn12    < 100 nM
CCc1c(-c2ccc3nncn3n2)[nH]c2ccc(C3CCNCC3)cc12    100 to 1000 nM

Attention now turns to another entry.
Task: Which IC50 value is on record for `CC(C)c1c(-c2cn(C)c3c(=O)n(C)ccc23)[nH]c2ccc(C3CCN(CC(=O)N(C)C)CC3)cc12` ?
Output: < 100 nM

###

Entries and their IC50 values follow.
biological target: human TLR8 (Homo sapiens, UniProt Q9NR97); experiment: TLR8 inhibition reporter assay (HEK-Blue cells, SEAP reporter, R848 stimulation); settings: HEK-Blue cells overexpressing human TLR8, SEAP reporter, R848 15.9 μM
Sequence (Q9NR97 27-1041): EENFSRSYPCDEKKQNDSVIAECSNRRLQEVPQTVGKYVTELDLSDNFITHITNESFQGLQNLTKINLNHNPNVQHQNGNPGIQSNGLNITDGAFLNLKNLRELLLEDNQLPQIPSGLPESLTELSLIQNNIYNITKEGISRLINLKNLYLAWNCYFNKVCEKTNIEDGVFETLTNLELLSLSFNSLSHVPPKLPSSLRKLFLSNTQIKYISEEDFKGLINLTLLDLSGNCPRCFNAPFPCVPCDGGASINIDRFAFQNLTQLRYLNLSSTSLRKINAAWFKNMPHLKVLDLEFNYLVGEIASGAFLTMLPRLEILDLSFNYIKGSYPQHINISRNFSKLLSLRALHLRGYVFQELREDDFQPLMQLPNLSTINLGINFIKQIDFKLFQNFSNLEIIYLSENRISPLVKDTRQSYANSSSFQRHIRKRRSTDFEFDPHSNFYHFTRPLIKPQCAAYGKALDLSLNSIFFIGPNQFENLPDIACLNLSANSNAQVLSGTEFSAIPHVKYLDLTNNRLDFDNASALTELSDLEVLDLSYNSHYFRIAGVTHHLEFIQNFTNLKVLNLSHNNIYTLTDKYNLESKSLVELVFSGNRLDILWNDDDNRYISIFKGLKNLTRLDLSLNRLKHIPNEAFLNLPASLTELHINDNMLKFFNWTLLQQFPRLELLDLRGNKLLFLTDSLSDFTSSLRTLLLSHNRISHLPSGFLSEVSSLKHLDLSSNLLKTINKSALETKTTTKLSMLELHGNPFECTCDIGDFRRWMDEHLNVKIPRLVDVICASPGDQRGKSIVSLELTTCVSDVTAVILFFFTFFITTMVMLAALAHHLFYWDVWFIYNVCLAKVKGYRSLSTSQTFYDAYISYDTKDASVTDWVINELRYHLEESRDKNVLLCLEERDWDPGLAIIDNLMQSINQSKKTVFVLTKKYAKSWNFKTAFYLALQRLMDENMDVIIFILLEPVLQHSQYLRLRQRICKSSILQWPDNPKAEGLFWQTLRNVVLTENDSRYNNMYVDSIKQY

Record excerpt, results attached:
Cc1cc(-c2[nH]c3ccc(C4CCN(C5COC5)CC4)cc3c2C(C)C)cn2nncc12    1000 to 50000 nM
Cc1cc(-c2[nH]c3ccc(C4CCN(C(=O)CN(C)C)CC4)cc3c2C(C)C)cc2ccnn12    < 100 nM

Task: Could you share which IC50 value was measured for `CNC(=O)CN1CCC(c2ccc3[nH]c(-c4ccn5nnc(C)c5c4)c(C(C)C)c3c2)CC1` ?
Output: < 100 nM

Task: Could you tell me which IC50 is on file for `CCc1c(-c2ccnc3[nH]ncc23)[nH]c2ccc(C3CCN(CCNC)CC3)cc12` ?
Output: < 100 nM

###

Molecular target: human TLR9 (Homo sapiens, UniProt Q9NR96)
Construct: host or cells: HEK-Blue cells (HEK293-derived reporter line)
Sequence (Q9NR96 26-1032): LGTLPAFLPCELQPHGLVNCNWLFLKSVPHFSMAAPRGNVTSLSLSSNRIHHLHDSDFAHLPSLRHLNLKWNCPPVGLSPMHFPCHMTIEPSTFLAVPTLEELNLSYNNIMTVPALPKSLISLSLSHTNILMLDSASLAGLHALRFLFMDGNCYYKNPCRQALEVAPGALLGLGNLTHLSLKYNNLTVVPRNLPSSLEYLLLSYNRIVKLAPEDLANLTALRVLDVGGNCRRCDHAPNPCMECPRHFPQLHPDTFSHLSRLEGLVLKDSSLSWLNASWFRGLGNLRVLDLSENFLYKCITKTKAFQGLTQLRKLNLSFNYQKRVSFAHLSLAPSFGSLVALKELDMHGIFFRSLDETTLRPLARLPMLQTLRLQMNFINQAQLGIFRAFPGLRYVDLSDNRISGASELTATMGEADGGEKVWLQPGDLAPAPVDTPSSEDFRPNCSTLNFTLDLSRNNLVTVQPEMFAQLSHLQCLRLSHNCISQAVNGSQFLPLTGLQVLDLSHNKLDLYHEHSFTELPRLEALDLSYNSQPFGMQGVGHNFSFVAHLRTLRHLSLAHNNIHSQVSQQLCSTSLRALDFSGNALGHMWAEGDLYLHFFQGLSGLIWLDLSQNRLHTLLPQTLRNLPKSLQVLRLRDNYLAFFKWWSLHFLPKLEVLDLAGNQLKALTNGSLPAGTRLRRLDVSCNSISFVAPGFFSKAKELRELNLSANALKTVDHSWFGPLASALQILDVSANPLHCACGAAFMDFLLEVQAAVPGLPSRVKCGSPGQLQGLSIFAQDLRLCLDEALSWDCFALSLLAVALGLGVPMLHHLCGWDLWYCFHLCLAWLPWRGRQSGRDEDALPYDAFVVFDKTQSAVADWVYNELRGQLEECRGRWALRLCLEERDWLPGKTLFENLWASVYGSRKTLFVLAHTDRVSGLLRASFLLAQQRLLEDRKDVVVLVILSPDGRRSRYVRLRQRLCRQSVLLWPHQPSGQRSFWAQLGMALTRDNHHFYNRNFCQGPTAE
Test: TLR9 inhibition reporter assay (HEK-Blue cells, SEAP reporter, ODN2006 stimulation)
Assay type: cell-based
Conditions: HEK-Blue cells overexpressing human TLR9, SEAP reporter, ODN2006 5 nM
Measurement label: IC50

Cc1cc(-c2[nH]c3ccc(C4CCNCC4)cc3c2C(C)C)nn2ncnc12 [Example 30]    1000 to 50000 nM

Task: Value lookup for IC50; key = CC(C)c1c(-c2ccn3c(=O)[nH]nc3c2)[nH]c2ccc(C3CCNCC3)cc12 [Example 199]
Output: 100 to 1000 nM

Task: Could you share which IC50 value was measured for Cc1cnc2ccc(-c3[nH]c4ccc(C5CCNCC5)cc4c3C(C)C)cn12 [Example 114] ?
Output: 100 to 1000 nM

Task: Look up IC50: Cc1cc(-c2[nH]c3ccc(C4CCN(CC(=O)N(C)C)CC4)cc3c2C(C)C)cc2cn(C)nc12 [Example 379]
Output: 1000 to 50000 nM
